Target: T1, IFNAR2/Fc fusion protein (extracellular domain of the human IFNAR2 receptor chain fused to the hinge, CH2 and … (human, UniProt P48551 27-243))
T1 construct: extracellular domain; Expressed in CHO cells, purified on protein A, captured on plates by mouse anti-human IgG1 mAb CDG5-AA9; also called IFNAR2-ectodomain/Fc fusion protein; IFNAR/Fc; not shown: human IgG1 heavy chain constant region: hinge, CH2 and CH3 domains
T1 sequence (looked up): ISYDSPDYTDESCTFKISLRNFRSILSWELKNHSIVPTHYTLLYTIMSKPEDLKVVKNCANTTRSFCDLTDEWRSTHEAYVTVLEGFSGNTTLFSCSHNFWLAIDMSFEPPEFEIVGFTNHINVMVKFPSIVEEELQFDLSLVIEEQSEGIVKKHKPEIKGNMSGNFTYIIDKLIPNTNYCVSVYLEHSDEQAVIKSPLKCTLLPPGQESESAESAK
Test: ELISA on captured IFNAR2/Fc
READOUT LABEL: concentration without binding, fold over the w.t. his-IFN-beta EC50

Count: 3. Required value per item: concentration without binding, fold over the w.t. his-IFN-beta EC50.
1. his tagged-interferon-beta alanine substitution mutant AB1 (ligand, Tested as conditioned medium of EBNA 293 cells) SGGHHHHHHSSGDDDDKMSYNLLGFLQRSSNFQCQKLLWQLNGRAAACAADRMNFDIPEEIKQLQQFQKEDAALTIYEMLQNIFAIFRQDSSSTGWNETIVENLLANVYHQINHLKTVLEEKLEKEDFTRGKLMSSLHLKRYYGRILHYLKAKEYSHCAWTIVRVEILRNFYFINRLTGYLRN
2. his tagged-interferon-beta alanine substitution mutant AB2 (ligand, Tested as conditioned medium of EBNA 293 cells) SGGHHHHHHSSGDDDDKMSYNLLGFLQRSSNFQCQKLLWQLNGRLEYCLKDRAAFAIPAEIKQLQQFQKEDAALTIYEMLQNIFAIFRQDSSSTGWNETIVENLLANVYHQINHLKTVLEEKLEKEDFTRGKLMSSLHLKRYYGRILHYLKAKEYSHCAWTIVRVEILRNFYFINRLTGYLRN
3. his tagged-interferon-beta alanine substitution mutant E (ligand, Tested as conditioned medium of EBNA 293 cells) SGGHHHHHHSSGDDDDKMSYNLLGFLQRSSNFQCQKLLWQLNGRLEYCLKDRMNFDIPEEIKQLQQFQKEDAALTIYEMLQNIFAIFRQDSSSTGWNETIVENLLANVYHQINHLKTVLEEKLEKEDFTRGKLMSSLHLKRYYGRILHYLKAKEYSHCAWTIVRAEILANFAFIARLTGYLRN

> 500 fold
> 500 fold
> 500 fold
